Source of measurements: paper PMC6171417

measuredOn: hCA II (Homo sapiens)
Construct: gene CA2; recombinant, obtained in-house as reported earlier; cytosolic
measurementDescription: stopped-flow CO2 hydrase assay
Format: biochemical
List of log10 Ki values.
parameter: log10 Ki (log10 of the value in nM)

1. N#Cc1c(-c2ccc(Cl)cc2)nc2c(nnn2-c2ccc(S(N)(=O)=O)cc2)c1N : 2.23
2. N#Cc1nnn(-c2ccc(S(N)(=O)=O)cc2)c1NC(=O)CCl : 2.71
3. CN(C)c1ccc(/C=N/c2c(C#N)nnn2-c2ccc(S(N)(=O)=O)cc2)cc1 : 2.25
4. Nc1c(C2=NCCN2)nnn1-c1ccc(S(N)(=O)=O)cc1 : 3.84
5. N#Cc1nnn(-c2ccc(S(N)(=O)=O)cc2)c1/N=C/c1ccc(Cl)cc1 : 1.98
6. N#Cc1c(-c2ccccc2)nc2c(nnn2-c2ccc(S(N)(=O)=O)cc2)c1N : 1.76

---

Test system: HT29
measurementDescription: cells
Design: species or system NCI human tumour cell line panel; NCI one-dose anti-proliferative screen, human tumour cell line panel, growth inhibition percent (GI%)
testParameters: Homo sapiens, HT-29; growth inhibition (GI%), single dose
parameter: inhibition at 10 µM (%)

1. N#Cc1nnn(-c2ccc(S(N)(=O)=O)cc2)c1/N=C/c1ccc(Cl)cc1 : 0.4
2. CN(C)c1ccc(-c2nc3c(nnn3-c3ccc(S(N)(=O)=O)cc3)c(N)c2C#N)cc1 : 3.3
3. N#Cc1c(-c2ccc(Cl)cc2)nc2c(nnn2-c2ccc(S(N)(=O)=O)cc2)c1N : 1.2

---

Recorded inhibition at 10 µM values for a group of compounds are listed next.
Tested on: NCI-H226
measurementDescription: cells
Parameters: species or system NCI human tumour cell line panel; NCI one-dose anti-proliferative screen, human tumour cell line panel, growth inhibition percent (GI%)
testParameters: Homo sapiens, NCI-H226; growth inhibition (GI%), single dose
parameter: inhibition at 10 µM (%)

1) N#Cc1nnn(-c2ccc(S(N)(=O)=O)cc2)c1NCC(=O)c1ccccc1 : 11.8
2) Nc1nc(=S)[nH]c2c1nnn2-c1ccc(S(N)(=O)=O)cc1 : 9.8
3) CCn1c(=S)[nH]c2c(nnn2-c2ccc(S(N)(=O)=O)cc2)c1=N : 6.9
4) N#Cc1nnn(-c2ccc(S(N)(=O)=O)cc2)c1N : 5.2
5) N#Cc1c(-c2ccc(Cl)cc2)nc2c(nnn2-c2ccc(S(N)(=O)=O)cc2)c1N : 9.8
6) CN(C)c1ccc(-c2nc3c(nnn3-c3ccc(S(N)(=O)=O)cc3)c(N)c2C#N)cc1 : 16.9

---

measuredOn: hCA IV (Homo sapiens)
Construct: gene CA4; recombinant, obtained in-house as reported earlier
Sequence (P22748 19-284): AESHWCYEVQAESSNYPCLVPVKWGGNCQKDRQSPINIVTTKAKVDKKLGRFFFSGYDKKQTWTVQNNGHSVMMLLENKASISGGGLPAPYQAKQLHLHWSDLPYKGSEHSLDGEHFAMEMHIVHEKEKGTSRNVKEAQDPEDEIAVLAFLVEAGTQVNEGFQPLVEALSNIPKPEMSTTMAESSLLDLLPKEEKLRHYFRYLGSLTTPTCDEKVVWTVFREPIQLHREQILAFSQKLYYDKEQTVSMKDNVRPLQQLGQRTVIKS
measurementDescription: stopped-flow CO2 hydrase assay
Assay type: biochemical
Lab note: anything with Ki below 800 nM is marked class 1; values at 800 nM or higher are marked class 0.

1) CCn1c(=S)[nH]c2c(nnn2-c2ccc(S(N)(=O)=O)cc2)c1=N : class 0
2) N#Cc1nnn(-c2ccc(S(N)(=O)=O)cc2)c1/N=C/c1ccccc1Cl : class 0
3) N=c1c2nnn(-c3ccc(S(N)(=O)=O)cc3)c2[nH]c(=S)n1-c1ccc(S(=O)(=O)Nc2cnc3ccccc3n2)cc1 : class 0
4) CN(C)c1ccc(-c2nc3c(nnn3-c3ccc(S(N)(=O)=O)cc3)c(N)c2C#N)cc1 : class 1
5) N#Cc1nnn(-c2ccc(S(N)(=O)=O)cc2)c1NCC(=O)c1ccccc1 : class 1
6) N=c1c2nnn(-c3ccc(S(N)(=O)=O)cc3)c2[nH]c(=O)n1-c1ccccc1 : class 0
